- tested_target: human PPARα (Homo sapiens)
- Construct: DNA constructs encoding human LBD domains of human PPARα, PPARγ, of LXRα (pGAL4-PPARα, pGAL4-PPARγ, pGAL4-LXRα); expressed in transfected cells; host or cells: HepG2
- Sequence (Q07869 239-466 limits assumed): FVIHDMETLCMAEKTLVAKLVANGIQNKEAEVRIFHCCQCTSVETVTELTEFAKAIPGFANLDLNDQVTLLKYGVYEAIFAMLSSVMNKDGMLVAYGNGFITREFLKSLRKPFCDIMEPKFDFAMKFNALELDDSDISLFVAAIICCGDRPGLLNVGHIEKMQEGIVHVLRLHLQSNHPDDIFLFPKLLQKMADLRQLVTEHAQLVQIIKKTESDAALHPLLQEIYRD
- test_method_notes: PPARα responsive luciferase reporter gene assay (pGAL4-PPARα / pGL5-UAS 9x) in HepG2 cells
- Format: cell-based
- experimental_setup: relative activation to fenofibrate 10 µM (100%), HepG2, 24 h, negative value indicates inverse agonism
Below, each entry is listed with its recorded Emax at 10 µM.
Please give a number only; it is taken to be in %.

Sample records with Emax at 10 µM:
- C[C@@H](Oc1ccc(Oc2cnc3ccc(Br)cc3n2)cc1)C(=O)O: 69
- C[C@@H](Oc1ccc(Oc2ccc3ccc([N+](=O)[O-])cc3n2)cc1)C(=O)O: 87
- C[C@@H](Oc1ccc(Oc2cnc3ccc(Cl)cc3n2)cc1)C(=O)O: 0
- CC(C)(Oc1ccc(Oc2ccc3ccc(Cl)cc3n2)cc1)C(=O)O: 1
- CCOC(=O)C(C)Oc1ccc(NCc2ccc3c(Cl)cccc3n2)cc1 (stereo not drawn): 1
- C[C@@H](Oc1ccc(Oc2ccc3c(C(F)(F)F)cccc3n2)cc1)C(=O)O: -5

For the molecule C[C@@H](Oc1ccc(Oc2ccc3ccc(Br)cc3n2)cc1)C(=O)O , the measured Emax at 10 µM on human PPARα (Homo sapiens) was 87

For the molecule C[C@@H](Oc1ccc(Oc2ccc3ccc(Cl)cc3n2)cc1)C(=O)O , the measured Emax at 10 µM on human PPARα (Homo sapiens) was 117

For the molecule Cc1cc(C)c2ccc(Oc3ccc(O[C@H](C)C(=O)O)cc3)nc2c1 , the measured Emax at 10 µM on human PPARα (Homo sapiens) was 0

###

- tested_target: UniProtKB Q8TDU6
- Sequence (Q8TDU6 1-330): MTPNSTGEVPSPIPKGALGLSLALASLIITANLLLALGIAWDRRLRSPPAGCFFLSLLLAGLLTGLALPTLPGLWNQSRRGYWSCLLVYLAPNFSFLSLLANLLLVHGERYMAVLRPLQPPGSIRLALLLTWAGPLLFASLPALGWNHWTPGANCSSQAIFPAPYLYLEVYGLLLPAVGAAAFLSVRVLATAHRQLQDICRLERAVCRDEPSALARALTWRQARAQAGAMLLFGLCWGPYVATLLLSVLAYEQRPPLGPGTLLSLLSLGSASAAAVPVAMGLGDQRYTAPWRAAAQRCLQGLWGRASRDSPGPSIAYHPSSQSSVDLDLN
- test_method_notes: TGR5 luciferase reporter assay
- Format: cell-based
- experimental_setup: relative activation to LCA 10 µM (100%), negative value indicates inverse agonism
measured_quantity: Emax at 10 µM (%)
Please give a number only; it is taken to be in %.

Sample records with Emax at 10 µM:
• CC(=O)Nc1ccc2ncc(Oc3ccc(OCC(=O)O)cc3)nc2c1 [compound 73] = 20
• C[C@@H](Oc1ccc(Oc2ccc3ccc(Br)cc3n2)cc1)C(=O)O [compound 39] = 6
• C[C@@H](Oc1ccc(Oc2ccc3c(Br)cccc3n2)cc1)C(=O)O [compound 40] = 16
• CCOC(=O)C(C)Oc1ccc(NCc2ccc3c(Cl)cccc3n2)cc1 (stereo not drawn) [compound 85] = 30
• C[C@@H](Oc1ccc(Oc2cnc3ccc(Br)cc3n2)cc1)C(=O)O [compound 65] = -3
• C[C@@H](Oc1ccc(Oc2cnc3ccc(Cl)cc3n2)cc1)C(=O)O [compound 63] = 4

Documented Emax at 10 µM of C[C@@H](Oc1ccc(Oc2ccc3c(Cl)cc(Cl)cc3n2)cc1)C(=O)O [compound 38] : 2

Documented Emax at 10 µM of C[C@@H](Oc1ccc(Oc2ccc3c(Cl)cccc3n2)cc1)C(=O)O [compound 37] : 10

Documented Emax at 10 µM of CC(C)(Oc1ccc(Oc2ccc3ccc(Cl)cc3n2)cc1)C(=O)O [compound 55] : -15

###

- tested_target: human FXR (Homo sapiens)
- Construct: expressed in transfected cells; host or cells: HepG2
- Sequence (Q96RI1 whole entry): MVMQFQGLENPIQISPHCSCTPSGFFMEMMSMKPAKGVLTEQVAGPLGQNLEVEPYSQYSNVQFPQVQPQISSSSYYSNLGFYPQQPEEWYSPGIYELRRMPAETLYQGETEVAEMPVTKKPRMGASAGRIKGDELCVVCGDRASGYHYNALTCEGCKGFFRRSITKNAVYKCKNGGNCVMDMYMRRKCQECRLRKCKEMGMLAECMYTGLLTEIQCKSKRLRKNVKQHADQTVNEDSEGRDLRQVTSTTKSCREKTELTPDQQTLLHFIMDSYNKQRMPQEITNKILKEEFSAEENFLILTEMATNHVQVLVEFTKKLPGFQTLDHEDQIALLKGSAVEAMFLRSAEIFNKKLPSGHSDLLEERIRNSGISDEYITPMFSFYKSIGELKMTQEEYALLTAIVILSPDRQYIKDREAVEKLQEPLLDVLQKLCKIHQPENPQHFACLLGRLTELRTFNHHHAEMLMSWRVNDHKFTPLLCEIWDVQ
- test_method_notes: FXR responsive luciferase reporter gene assay (FXRE-luc + human FXR expression construct) in HepG2 cells
- Assay type: cell-based
- experimental_setup: HepG2, 24 h
Below, each entry is listed with its recorded Emax at 10 µM.
Please give a number only; it is taken to be in %.

Documented Emax at 10 µM of C[C@@H](Oc1ccc(Oc2ccc3ccc(Cl)cc3n2)cc1)C(=O)O : 4

Documented Emax at 10 µM of C[C@@H](Oc1ccc(Oc2ccc3ccc(F)cc3n2)cc1)C(=O)O : 1

###

- tested_target: human PPARα (Homo sapiens, UniProt Q07869)
- Construct: DNA constructs encoding human LBD domains of human PPARα, PPARγ, of LXRα (pGAL4-PPARα, pGAL4-PPARγ, pGAL4-LXRα); expressed in transfected cells; host or cells: HepG2
- Sequence (Q07869 239-466 limits assumed): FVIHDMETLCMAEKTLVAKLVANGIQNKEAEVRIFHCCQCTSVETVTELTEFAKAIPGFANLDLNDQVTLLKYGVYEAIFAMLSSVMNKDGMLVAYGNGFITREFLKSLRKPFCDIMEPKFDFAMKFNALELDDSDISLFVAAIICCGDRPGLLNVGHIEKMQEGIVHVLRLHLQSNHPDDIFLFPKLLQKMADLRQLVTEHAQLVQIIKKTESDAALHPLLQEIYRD
- test_method_notes: PPARα responsive luciferase reporter gene assay (pGAL4-PPARα / pGL5-UAS 9x) in HepG2 cells
- Type: cell-based
- experimental_setup: relative activation to fenofibrate 10 µM (100%), HepG2, 24 h, negative value indicates inverse agonism
measured_quantity: Emax at 10 µM (%)
Please give a number only; it is taken to be in %.

Sample records with Emax at 10 µM:
• CC(Oc1ccc(Nc2cnc3ccc(Cl)cc3n2)cc1)C(=O)O (centres unmarked) = 0
• CC(=O)Nc1ccc2ncc(Oc3ccc(O[C@H](C)C(=O)O)cc3)nc2c1 = 46
• C[C@@H](Oc1ccc(Oc2ccc3ccc(F)cc3n2)cc1)C(=O)O = 1
• C[C@@H](Oc1ccc(Oc2ccc3c(Cl)cc(Cl)cc3n2)cc1)C(=O)O = 0

Next, consider the following molecule.
Documented Emax at 10 µM of Cc1ccc2ncc(Oc3ccc(O[C@H](C)C(=O)O)cc3)nc2c1 : 1

###

- tested_target: TGR5 (Homo sapiens, UniProt Q8TDU6)
- test_method_notes: TGR5 luciferase reporter assay
- Assay type: cell-based
- experimental_setup: relative activation to LCA 10 µM (100%), negative value indicates inverse agonism
Below, each entry is listed with its recorded Emax at 10 µM.
Please give a number only; it is taken to be in %.

Sample records with Emax at 10 µM:
• C[C@@H](Oc1ccc(Oc2ccc3ccc(Cl)cc3n2)cc1)C(=O)O = 5
• C[C@@H](Oc1ccc(Oc2cnc3ccccc3n2)cc1)C(=O)O = 43

Next, consider the following molecule.
Documented Emax at 10 µM of C[C@@H](Oc1ccc(Oc2cnc3ccc(I)cc3n2)cc1)C(=O)O : 11

###

- tested_target: human PPARγ (Homo sapiens, UniProt P37231)
- Construct: DNA constructs encoding human LBD domains of human PPARα, PPARγ, of LXRα (pGAL4-PPARα, pGAL4-PPARγ, pGAL4-LXRα); expressed in transfected cells; host or cells: HepG2
- Sequence (P37231 238-503 limits assumed): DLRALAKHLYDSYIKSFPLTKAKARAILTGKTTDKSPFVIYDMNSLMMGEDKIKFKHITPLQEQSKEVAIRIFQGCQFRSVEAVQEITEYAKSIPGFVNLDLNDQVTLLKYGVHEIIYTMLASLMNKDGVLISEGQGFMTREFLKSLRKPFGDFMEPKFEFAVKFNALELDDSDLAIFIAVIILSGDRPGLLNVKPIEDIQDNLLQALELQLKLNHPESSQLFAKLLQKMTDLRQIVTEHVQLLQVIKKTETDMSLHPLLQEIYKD
- test_method_notes: PPARγ luciferase reporter gene assay (pGAL4-PPARγ / pGL5-UAS 9x) in HepG2 cells
- Type: cell-based
- experimental_setup: HepG2, 24 h
Below, each entry is listed with its recorded Emax at 10 µM.

Sample records with Emax at 10 µM:
• CC(C)(Oc1ccc(Oc2ccc3ccc(Cl)cc3n2)cc1)C(=O)O [compound 55] = -2%
• C[C@@H](Oc1ccc(Oc2ccc3ccc(Br)cc3n2)cc1)C(=O)O [compound 39] = 3%
• C[C@@H](Oc1ccc(Oc2cnc3ccc(I)cc3n2)cc1)C(=O)O [compound 68] = 9%

Documented Emax at 10 µM of CC(=O)Nc1ccc2ncc(Oc3ccc(O[C@H](C)C(=O)O)cc3)nc2c1 [compound 69] : 1%

Documented Emax at 10 µM of C[C@@H](Oc1ccc(Oc2cnc3ccccc3n2)cc1)C(=O)O [compound 62] : 2%

###

Below, each entry is listed with its recorded inhibition at 10 µM.
- tested_target: human LXRα (Homo sapiens, UniProt Q13133)
- Construct: DNA constructs encoding human LBD domains of human PPARα, PPARγ, of LXRα (pGAL4-PPARα, pGAL4-PPARγ, pGAL4-LXRα); expressed in transfected cells; host or cells: HepG2
- Sequence (Q13133 209-447 limits assumed): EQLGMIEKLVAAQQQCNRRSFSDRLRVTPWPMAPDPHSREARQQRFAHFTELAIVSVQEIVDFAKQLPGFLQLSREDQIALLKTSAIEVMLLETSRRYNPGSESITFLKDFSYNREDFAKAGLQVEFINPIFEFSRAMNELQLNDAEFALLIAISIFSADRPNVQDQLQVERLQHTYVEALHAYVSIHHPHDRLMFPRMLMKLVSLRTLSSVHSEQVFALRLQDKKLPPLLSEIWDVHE
- test_method_notes: LXRα luciferase reporter gene assay, inhibition of activation by GW3965 (pGAL4-LXRα / pGL5-UAS 9x) in HepG2 cells
- Format: cell-based
- experimental_setup: HepG2, 24 h; read-out: LXRα antagonism
Please give a number only; it is taken to be in %.

Documented inhibition at 10 µM of CCOC(=O)[C@@H](C)Oc1ccc(Oc2ccc3c(Cl)cccc3n2)cc1 : 51

Documented inhibition at 10 µM of CC(Oc1ccc(Nc2cnc3ccc(Cl)cc3n2)cc1)C(=O)O (stereo not drawn) : 66

Documented inhibition at 10 µM of C[C@@H](Oc1ccc(Oc2ccc3cc(Cl)ccc3n2)cc1)C(=O)O : 36
